- testSystem: PARP7 (Homo sapiens (Human), UniProt Q7Z3E1)
- Sequence (Q7Z3E1 whole entry): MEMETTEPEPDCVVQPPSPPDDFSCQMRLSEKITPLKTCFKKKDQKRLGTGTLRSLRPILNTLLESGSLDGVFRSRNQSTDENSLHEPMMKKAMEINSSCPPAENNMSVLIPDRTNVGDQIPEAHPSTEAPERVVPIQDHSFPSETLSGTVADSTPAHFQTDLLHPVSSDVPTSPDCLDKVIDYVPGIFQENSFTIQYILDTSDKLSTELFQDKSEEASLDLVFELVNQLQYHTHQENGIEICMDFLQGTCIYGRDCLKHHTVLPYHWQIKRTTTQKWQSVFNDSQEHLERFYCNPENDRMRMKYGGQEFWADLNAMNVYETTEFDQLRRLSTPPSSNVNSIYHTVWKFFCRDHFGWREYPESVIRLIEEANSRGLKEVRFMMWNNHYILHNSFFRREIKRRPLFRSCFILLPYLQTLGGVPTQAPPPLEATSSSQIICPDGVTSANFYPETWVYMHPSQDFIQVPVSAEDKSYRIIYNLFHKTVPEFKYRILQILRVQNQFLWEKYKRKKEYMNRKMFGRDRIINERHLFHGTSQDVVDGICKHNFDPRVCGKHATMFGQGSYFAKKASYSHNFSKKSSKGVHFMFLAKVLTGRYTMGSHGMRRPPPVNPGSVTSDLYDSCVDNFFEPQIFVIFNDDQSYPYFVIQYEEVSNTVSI
- experimentDescription: Enzymatic assay for inhibition of PARP7: TR-FRET displacement of biotinylated Probe A from the TIPARP active site
- conditionDescription: Table A-1
Listed next: entries and their corresponding IC50.

Please review the following examples before continuing.
compound	observationType	experimentalResult
N#Cc1ccc(N2CCN(C(=O)C[C@H]3CCC[C@H](COc4cn[nH]c(=O)c4C(F)(F)F)O3)CC2)nc1 (single isomer, unassigned) [Example 583 Isomer B]	IC50	≥ 1000 nM
COC[C@H](COCCC(=O)N1CCN(c2cnc(Cl)cn2)CC1)Oc1cn[nH]c(=O)c1C(F)(F)F	IC50	100 to 1000 nM
C[C@@H](COCCC(=O)N1CCN(c2ncccc2C#N)CC1)Nc1cn[nH]c(=O)c1C(F)(F)F	IC50	< 100 nM

Incoming: Specify measured IC50 for COc1cccc2c1CN(c1cn[nH]c(=O)c1Cl)C2 .
Outgoing: 100 to 1000 nM

Incoming: Read the entry C[C@H](CSCCC(=O)N1CCN(c2ncc(C(F)(F)F)cn2)CC1)Oc1cn[nH]c(=O)c1C(F)(F)F [Example 621B] and write its reported IC50.
Outgoing: < 100 nM

Incoming: Give the reported value of IC50 for this record: CC1CN(c2ccc(C#N)cn2)CCN1C(=O)c1cccc(OC[C@@H]2CCCN2c2cn[nH]c(=O)c2C(F)(F)F)c1 (stereo partly drawn)
Outgoing: < 100 nM

Incoming: Give IC50 for the following compound: C[C@@H](COCCC(=O)N1CCN(c2nnc(C(F)(F)F)s2)CC1)Nc1cn[nH]c(=O)c1C(F)(F)F
Outgoing: < 100 nM

Incoming: Item C[C@H](COCCC(=O)N1CCN(c2ccc(C#N)cn2)CC1)Oc1cn[nH]c(=O)c1C(F)(F)F [Example 530B] : provide IC50
Outgoing: 100 to 1000 nM

Incoming: Item O=c1[nH]ncc(N2Cc3cccc(CNc4ccncc4)c3C2)c1C(F)(F)F : provide IC50
Outgoing: < 100 nM
